assayed-system: mouse VISTA (mVISTA) (Mus musculus, UniProt Q9D659)
Construct: expressed in transfected cells; host or cells: Human embryonic kidney 293T cells
Sequence (Q9D659 33-308): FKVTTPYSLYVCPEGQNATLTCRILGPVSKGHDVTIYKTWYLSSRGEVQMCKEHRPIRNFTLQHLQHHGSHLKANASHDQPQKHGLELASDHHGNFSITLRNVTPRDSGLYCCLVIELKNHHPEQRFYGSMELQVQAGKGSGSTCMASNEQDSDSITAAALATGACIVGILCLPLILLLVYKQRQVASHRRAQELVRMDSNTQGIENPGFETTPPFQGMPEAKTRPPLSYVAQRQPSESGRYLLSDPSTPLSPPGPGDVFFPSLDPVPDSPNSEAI
experiment-description: Cell-Based Binding High-Content Assay For mVISTA (HC CBA mVISTA)
applied-conditions: read-out: HC CBA mVISTA IC50
Positions of bridges follow the written chain, without caps; N, C: chain ends. Non-standard residues stand in square brackets, D forms with d. Residues, ends and D or L forms follow the SMILES beside them. Phe(3-CN) = N#Cc1cccc(C[C@H](N)C(=O)O)c1; Ahp(2) = CCCCC[C@H](N)C(=O)O; NMeNle = CCCC[C@H](NC)C(=O)O; Tle = CC(C)(C)[C@H](N)C(=O)O; NHexGly = CCCCCCNCC(=O)O; Nle = CCCC[C@H](N)C(=O)O
measured-quantity: pIC50
Units for pIC50: none; it is -log10 of a concentration expressed in mol/L.

Given the compound CCCCCCN1CC(=O)N[C@@H](Cc2ccc(O)cc2)C(=O)N[C@@H](CCCC)C(=O)N[C@@H](CC(N)=O)C(=O)N[C@@H](CCCNC(=N)N)C(=O)N(C)[C@@H](CCCC)C(=O)N[C@@H](CCCCC)C(=O)N2CCC[C@H]2C(=O)N[C@@H](C(C)C)C(=O)N[C@@H](CO)C(=O)N[C@H](C(=O)NCC(=O)O)CSCC(=O)N[C@@H](Cc2ccccc2)C(=O)N[C@@H](Cc2c[nH]c3ccccc23)C(=O)N[C@@H](CC(=O)O)C1=O [Example 1382] ({CH2CO}-FWD[NHexGly]Y[Nle]NR[NMeNle][Ahp(2)]PVSCG-OH; thioether N-14) , what is its reported pIC50? 7.76

Let's switch to this compound now.
Given the compound CCCCCCN1CC(=O)N[C@@H](Cc2ccc(O)cc2)C(=O)N[C@@H](CC(C)C)C(=O)N[C@@H](CC(N)=O)C(=O)N[C@@H](CCCNC(=N)N)C(=O)N(C)[C@@H](CCCC)C(=O)N[C@@H](CCCCC)C(=O)N2CCC[C@H]2C(=O)N[C@@H](C(C)(C)C)C(=O)N[C@@H](CO)C(=O)N[C@H](C(=O)NCC(N)=O)CSCC(=O)N[C@@H](Cc2cccc(C#N)c2)C(=O)N[C@@H](Cc2ccc(O)cc2)C(=O)N[C@@H](CC(=O)O)C1=O [compound 1210] ({CH2CO}-[Phe(3-CN)]YD[NHexGly]YLNR[NMeNle][Ahp(2)]P[Tle]SCG-NH2; thioether N-14) , what is its reported pIC50? 7.42
